# Test system: KM12 colon
# assay notes: NCI-60 one-dose screen, 48 h (100 = growth as untreated, 0 = no growth, -100 = all killed)
# condition notes: 10 µM unless noted
The panel holds about 83,000 compounds, 20% with a hit somewhere; the sample as a whole holds those more often. The source made the active and inactive calls. Rule for the calls: active = growth percent below 10; inactive = the rest.
measured property: growth

* CC1=CC(=O)C=CC1(C)C(Cl)(Cl)Cl (centres undefined) | 108% (inactive)
* O=[N+]([O-])C=C(c1ccccc1)c1ccccc1 | 66.4% (inactive)
* O=C(c1ccccc1)C(O)C(Br)(CBr)c1ccccc1 (centres undefined) | 80.5% (inactive)
* COc1cc(OC)c(/C=C/c2c3ccccc3cc[n+]2C)c(OC)c1 | 6.03% (active)
* CCCCCCCCCCCCCCCc1ccc(C(=O)C[n+]2ccccc2)cc1 | -97.7% (active)
* Cn1c(-c2ccccc2)c(/C=C/C2=[N+](C)c3ccccc3C2(C)C)c2ccccc21 | -22.8% (active)
* CCC(C)(O)Cc1ccc(Cl)cc1 (centres undefined) | 101% (inactive)
* COc1cc(/C=C2\SC(=S)N(/C=C/c3nc4ccccc4[nH]c3=O)C2=O)cc(OC)c1OC | 90.4% (inactive)
* OC(c1cc2ccc(C(F)(F)F)cc2c2cc(C(F)(F)F)ccc12)C1CCCCN1 (centres undefined) | -97.3% (active)
* CCc1cnc2ccccc2c1/C=C/c1ccc(N(C)C)cc1 | 25.5% (inactive)
* CC1(C)OCC(COC(c2ccccc2)(c2ccccc2)c2ccccc2)O1 (centres undefined) | 96.5% (inactive)
* Nc1nc(N)c2cc(Sc3cccc(C(F)(F)F)c3)ccc2n1 | 24.8% (inactive)
* CC(C)(C)CC(C)(C)c1ccc(OCCOCCSC(=N)N)cc1 | 36.9% (inactive)
* O=C1C=CC(=O)N1c1cc(Cl)c(Cl)cc1Cl | 106% (inactive)
* CCCCCCC1N=C(N)N=C(N)N1c1cccc(Cl)c1 (centres undefined) | 18.6% (inactive)
* O=C1/C(=C/c2ccccc2)CCC/C1=C\c1ccccc1 | 10.1% (inactive)
* O=C(O)c1ccc2c(c1)C(=O)c1ccccc1C2=O | 98.9% (inactive)
* O=C(c1ccccc1)c1cc2ccccc2oc1=O | 92.3% (inactive)
* O=C1C=CC(=O)N1C1CCCCCCCCCCC1 | 104% (inactive)
* Cc1cc(C(=C2C=CC(=Nc3ccccc3)C=C2)c2ccc(Nc3ccccc3)cc2)ccc1N | -89.2% (active)
* O=C1Nc2ccc(Br)cc2C1=O | 96.7% (inactive)
* Cc1ccc(N2C(=O)C=CC2=O)cc1 | 108% (inactive)
* CCCCCCCCc1cc(Cl)c(O)c(Cl)c1 | 101% (inactive)
* COC1CC(C)C(OC)c2cc(O)cc(c2O)NC(=O)/C(C)=C/C=C\C(C)C(OC(N)=O)/C(C)=C\C(C)C1OC (centres undefined) | -46.4% (active)

====

# System: COLO 205 colon
# assay notes: NCI-60 one-dose screen, 48 h (100 = growth as untreated, 0 = no growth, -100 = all killed)
# condition notes: 10 µM unless noted
About 83,000 compounds went through this panel and 20% of them were active in at least one assay; those are over-represented in the sample as a whole.
# growth annotations
measured property: growth (%)

* O=[N+]([O-])c1ccc(Oc2ccccc2Cl)c([N+](=O)[O-])c1 | 112
* O=C(Cc1nc2cc(Cl)c(Cl)cc2nc1CC(=O)c1ccccc1)c1ccccc1 | 76.3
* O=C(/C=C/C(Cl)(Cl)Cl)Nc1ccc(Cl)cc1 | 98.6
* CCCCCCCCCCCC[S+](C)CC(=O)[O-] (configuration not stated) | 2.95
* CCN(CC)CCNC(Cc1ccccc1)c1ccc(OCc2ccccc2)cc1 (configuration not stated) | 54.2
* Oc1c(Cl)cc(Cl)cc1C(c1cc(Cl)cc(Cl)c1O)C(Cl)(Cl)Cl | -90.9
* CCC(C)(O)Cc1ccc(Cl)cc1 (configuration not stated) | 108
* COC(=O)c1cc([N+](=O)[O-])cc([N+](=O)[O-])c1Cl | -64.1
* C[C@@]1(CO)[C@H](O)CC[C@@]2(C)[C@H]1CC[C@H]1C[C@@H]3C[C@@]12CC[C@@]3(O)COC(=O)CN | 47
* O=C1C=CC(=O)N1C1CCCCCCCCCCC1 | 52.4
* O=C(NNc1ccccc1)OCc1ccccc1 | 97.6
* Nc1cccc2cccc([N+](=O)[O-])c12 | 94.1
* CCOC(=O)C1=C(C(=O)c2ccccc2)C(c2cccc([N+](=O)[O-])c2)C(C(=O)c2ccccc2)=C(C(=O)OCC)N1 | 114
* CCCCOS(=O)(=O)c1ccccc1 | 134
* O=C1C(=O)c2cccnc2-c2ncccc21 | -88.5
* CCN1/C(=C/C(C)=C/c2sc3ccc4ccccc4c3[n+]2CC)Sc2ccc3ccccc3c21 | -83.6
* O=C(O)c1ccc2c(c1)C(=O)c1ccccc1C2=O | 100
* Cc1nnc(N/N=C/c2ccc([N+](=O)[O-])o2)[nH]c1=O | -56.5
* CCCCCCCCCCCCCCCCCC[S+](C)CC (configuration not stated) | -38
* Nc1nc2ncc(CNc3ccc(C(=O)NC(CCC(=O)NC(CCC(=O)NC(CCC(=O)NC(CCC(=O)NC(CCC(=O)O)C(=O)O)C(=O)O)C(=O)O)C(=O)O)C(=O)O)cc3)nc2c(=O)[nH]1 (configuration not stated) | 113
* COC(=O)c1ccc(=O)c2nc3/c(=C/O)c(O)cc(=O)c3[nH]c12 | 51
* NC(=S)N/N=C/c1ncccc1O | 11.2
